Target: HIV-1 gp120 V3 hypervariable loop (Human immunodeficiency virus type 1 group M subtype B, UniProt P03375); as to Inhibitory activity: key: Chemicals with inhibitory activity are indicated by +
Construct: Polystyrene plates coated with recombinant gp120 and gp160, respectively; purchased American Bio-Technologies, Inc., Cambridge, Mass; host or cells: baculovirus expression system
Test: biochemical
Type: binding
Conditions: Table 1; reaction between HIV-1 gp120 and anti-V3 loop antibodies
Reported endpoint: Inhibitory activity

INSERT INTO results (compound, value_reported) VALUES
  ('CC(=O)C1=CC(=C(c2ccc(O)c(C(C)=O)c2)c2ccc(O)c(C(C)=O)c2)C=CC1=O', '+'),
  ('O=Cc1ccc(-c2ccccc2)cc1', '+'),
  ('CC1=C(CCC(=O)O)c2cc3[nH]c(cc4nc(cc5[nH]c(cc1n2)c(C(O)CO)c5C)C(C(O)CO)=C4C)c(C)c3CCC(=O)O (centres unmarked)', '+'),
  ('Nc1ccc2c3c(cccc13)-c1ccccc1-2', '+'),
  ('O=C(O)C1=CC(I)=CC(=C(c2cc(I)cc(C(=O)O)c2O)c2cc(I)cc(C(=O)O)c2O)C1=O', '+');

* * *

Here the recorded inhibition is given for each entry.
Test system: HIV-1
Test: Antiviral activity: inhibition of P24 production in MT-2 cells
Type: cell-based, HIV-1 IIIB
Set-up: dose or concentration left out as unconfirmed
Settings: Human immunodeficiency virus 1, MT2; Table 1; read-out: percentage of inhibition of P24 nucleoprotein production
Reported endpoint: inhibition (%)

INSERT INTO assay_data (compound, value_reported) VALUES
  ('O=Cc1ccc(-c2ccccc2)cc1 [compound 93]', 32),
  ('O=C(O)CCC1=C(CC(=O)O)c2cc3[nH]c(cc4nc(cc5[nH]c(cc1n2)c(CC(=O)O)c5CCC(=O)O)C(CC(=O)O)=C4CCC(=O)O)c(CC(=O)O)c3CCC(=O)O [compound 163]', 99),
  ('O=C(O)C1=CC(I)=CC(=C(c2cc(I)cc(C(=O)O)c2O)c2cc(I)cc(C(=O)O)c2O)C1=O [compound 131]', 41),
  ('O=C(O)C1=CC(=C(c2ccc(O)c(C(=O)O)c2)c2ccc(O)c(C(=O)O)c2)C=CC1=O [compound 122]', 83);

* * *

Here the recorded inhibition at 50 µg/mL is given for each entry.
Target: HIV-1 gp120 V3 hypervariable loop (Human immunodeficiency virus type 1 group M subtype B, UniProt P03375)
Construct: Polystyrene plates coated with recombinant gp120 and gp160, respectively; purchased American Bio-Technologies, Inc., Cambridge, Mass; host or cells: baculovirus expression system
Test: biochemical
Assay type: binding
Details: read-out: percentage of inhibition
Reported endpoint: inhibition at 50 µg/mL (%)

INSERT INTO assay_data (molecule, reported_endpoint, value_reported) VALUES
  ('O=C(O)COc1cc2oc3cc(=O)c(OCC(=O)O)cc-3c(-c3ccccc3)c2cc1OCC(=O)O [compound 129]', 'inhibition at 50 µg/mL', 56.8),
  ('O=Cc1ccc(-c2ccccc2)cc1 [compound 93]', 'inhibition at 50 µg/mL', 21),
  ('O=C(O)CCC1=C(CC(=O)O)c2cc3[nH]c(cc4nc(cc5[nH]c(cc1n2)c(CCC(=O)O)c5CC(=O)O)C(CC(=O)O)=C4CCC(=O)O)c(CC(=O)O)c3CCC(=O)O [compound 164]', 'inhibition at 50 µg/mL', 45),
  ('c1ccc(CNc2ccccc2)cc1 [compound 42]', 'inhibition at 50 µg/mL', 28.8),
  ('C1=Cc2nc1c(-c1ccncc1)c1ccc([nH]1)c(-c1ccncc1)c1nc(c(-c3ccncc3)c3ccc([nH]3)c2-c2ccncc2)C=C1 [compound 161]', 'inhibition at 50 µg/mL', 66.4),
  ('CC(C)C[C@H](NC(=O)[C@H](C)NC(=O)[C@H](CC(C)C)NC(c1ccccc1)(c1ccccc1)c1ccccc1)C(=O)O [compound 114]', 'inhibition at 50 µg/mL', 62.1),
  ('O=C1OC(=O)C2C3c4ccccc4C(c4ccccc43)C12 (stereo not shown) [compound 106]', 'inhibition at 50 µg/mL', 77.5);

Ref: patent US5230998A
